- measured.target: T1, EsCas13d, nuclease-dead (Eubacterium siraeum, UniProt B0MS50, R295A;H300A;R849A;H854A)
- T1 sequence: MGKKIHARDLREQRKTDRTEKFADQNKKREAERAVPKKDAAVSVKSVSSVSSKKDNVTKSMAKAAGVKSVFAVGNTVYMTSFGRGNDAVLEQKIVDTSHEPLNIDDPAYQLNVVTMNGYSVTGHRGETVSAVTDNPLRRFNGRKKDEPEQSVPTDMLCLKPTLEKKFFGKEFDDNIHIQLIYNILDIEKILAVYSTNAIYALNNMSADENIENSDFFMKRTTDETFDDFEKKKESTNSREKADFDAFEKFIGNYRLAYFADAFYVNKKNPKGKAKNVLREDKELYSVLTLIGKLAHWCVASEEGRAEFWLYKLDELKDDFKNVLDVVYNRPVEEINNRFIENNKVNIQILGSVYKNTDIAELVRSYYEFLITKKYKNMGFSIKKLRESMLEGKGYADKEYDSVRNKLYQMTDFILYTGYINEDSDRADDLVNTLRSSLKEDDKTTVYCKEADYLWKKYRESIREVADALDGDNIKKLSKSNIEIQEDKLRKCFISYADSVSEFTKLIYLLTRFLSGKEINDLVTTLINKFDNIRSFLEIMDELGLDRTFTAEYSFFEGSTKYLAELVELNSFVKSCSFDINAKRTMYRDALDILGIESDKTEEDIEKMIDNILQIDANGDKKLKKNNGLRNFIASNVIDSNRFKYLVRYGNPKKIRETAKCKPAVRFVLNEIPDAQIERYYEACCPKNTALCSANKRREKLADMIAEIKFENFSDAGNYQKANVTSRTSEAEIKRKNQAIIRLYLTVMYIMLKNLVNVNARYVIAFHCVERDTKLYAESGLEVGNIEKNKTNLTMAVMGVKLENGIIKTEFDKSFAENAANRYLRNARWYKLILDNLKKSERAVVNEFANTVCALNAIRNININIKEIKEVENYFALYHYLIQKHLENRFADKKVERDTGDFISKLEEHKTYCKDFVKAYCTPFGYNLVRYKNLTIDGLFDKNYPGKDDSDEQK
- protocol: crRNA (strand 1, pre-loaded); Mg2+; 40 mM Tris-HCl pH 7.5, 150 mM NaCl, 6 mM MgCl2, 1 mM DTT, 0.1% Tween-20, 0.2 mg/ml BSA; 25 C; 10 min per concentration, then washed
- experimental.conditions: tags: His6-TwinStrep-SUMO cleaved; N-terminal SNAP kept (SNAP-Surface 488); label: 3' end held by stalled T7 RNA polymerase
Exam item: assign Met to entries whose Kd is below 20 nM and Not met to entries at or above 20 nM. Note that a value of exactly 20 nM receives Not met.

Identify whether the binder target 1 MT 5'PFS GCA 3'PFS AGG (mixed) RNA 1: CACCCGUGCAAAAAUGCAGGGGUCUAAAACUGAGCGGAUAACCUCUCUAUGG RNA 2: GGGAAUGGAUCCACAUCUACGAAUUCGCACCAUAGAGAGGUUAUCCGCUCAAGGAGAUCGGAAGAGCACACGU records Kd below 20 nM.
Not met

Identify whether the binder target 1 insU 3' of 17,insG 3' of 8 (mixed) RNA 1: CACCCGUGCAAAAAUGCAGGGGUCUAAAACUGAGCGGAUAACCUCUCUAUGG RNA 2: GGGAAUGGAUCCACAUCUACGAAUUCGUACCAUAGUAGAGGUUAUGCCGCUCACCGAGAUCGGAAGAGCACACGU records Kd below 20 nM.
Not met

Identify whether the binder target 2 MT 5'PFS UAU 3'PFS AUG (mixed) RNA 1: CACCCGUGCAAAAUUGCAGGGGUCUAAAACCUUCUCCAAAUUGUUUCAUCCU RNA 2: GGGAAUGGAUCCACAUCUACGAAUUCUAUAGGAUGAAACAAUUUGGAGAAGAUGAGAUCGGAAGAGCACACGU records Kd below 20 nM.
Not met

Identify whether the binder target 1 insU 3' of 13,insG 3' of 8 (mixed) RNA 1: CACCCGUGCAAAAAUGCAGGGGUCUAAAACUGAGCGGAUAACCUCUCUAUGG RNA 2: GGGAAUGGAUCCACAUCUACGAAUUCGUACCAUAGAGAGUGUUAUGCCGCUCACCGAGAUCGGAAGAGCACACGU records Kd below 20 nM.
Met

Identify whether the binder target 1 MT 5'PFS GUA 3'PFS GGU (mixed) RNA 1: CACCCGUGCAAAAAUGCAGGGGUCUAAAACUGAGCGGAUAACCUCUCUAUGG RNA 2: GGGAAUGGAUCCACAUCUACGAAUUCGUACCAUAGAGAGGUUAUCCGCUCAGGUAGAUCGGAAGAGCACACGU records Kd below 20 nM.
Not met

Identify whether the binder target 3 C1A,U2C (mixed) RNA 1: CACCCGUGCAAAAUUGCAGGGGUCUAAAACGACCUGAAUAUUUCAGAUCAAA RNA 2: GGGAAUGGAUCCACAUCUACGAAUUCGUUUUUGAUCUGAAAUAUUCAGGCAUGCAGAUCGGAAGAGCACACGU records Kd below 20 nM.
Met

Identify whether the binder target 1 U8A,U10G (mixed) RNA 1: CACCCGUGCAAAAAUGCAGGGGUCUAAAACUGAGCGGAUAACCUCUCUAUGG RNA 2: GGGAAUGGAUCCACAUCUACGAAUUCGUACCAUAGAGAGGUGAACCGCUCACCGAGAUCGGAAGAGCACACGU records Kd below 20 nM.
Met
